# SYSTEM TESTED: human serum albumin (HSA) (Homo sapiens, UniProt P02768)
# Sequence (P02768 25-609): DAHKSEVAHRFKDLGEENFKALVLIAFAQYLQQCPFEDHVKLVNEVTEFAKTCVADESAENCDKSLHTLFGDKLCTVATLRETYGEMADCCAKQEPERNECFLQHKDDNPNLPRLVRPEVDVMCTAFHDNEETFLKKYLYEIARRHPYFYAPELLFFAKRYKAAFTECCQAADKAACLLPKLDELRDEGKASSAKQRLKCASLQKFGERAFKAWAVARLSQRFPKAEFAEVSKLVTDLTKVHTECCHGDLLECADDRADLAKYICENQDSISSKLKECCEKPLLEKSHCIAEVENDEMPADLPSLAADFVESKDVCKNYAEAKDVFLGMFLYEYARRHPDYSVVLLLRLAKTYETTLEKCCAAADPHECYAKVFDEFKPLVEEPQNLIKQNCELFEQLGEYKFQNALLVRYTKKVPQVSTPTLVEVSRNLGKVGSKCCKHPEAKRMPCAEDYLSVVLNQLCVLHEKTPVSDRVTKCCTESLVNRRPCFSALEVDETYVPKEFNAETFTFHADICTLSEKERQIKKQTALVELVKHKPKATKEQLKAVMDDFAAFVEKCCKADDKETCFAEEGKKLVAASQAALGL
# ASSAY PROTOCOL: biochemical
QUANTITY KIND: pKd
The meaning of pKd here: minus log10 of the concentration in molar units.

pKd measured on NC(=O)N1c2ccccc2C=Cc2ccccc21 [carbamazepine] = 3.77

The measured values listed here are drawn from patent US20080003590A1.
